- ASSAYED SYSTEM: IMPDH1(546)-Y12A (Homo sapiens, UniProt P20839, Y12A)
- Sequence (P20839 1-509 Y12A): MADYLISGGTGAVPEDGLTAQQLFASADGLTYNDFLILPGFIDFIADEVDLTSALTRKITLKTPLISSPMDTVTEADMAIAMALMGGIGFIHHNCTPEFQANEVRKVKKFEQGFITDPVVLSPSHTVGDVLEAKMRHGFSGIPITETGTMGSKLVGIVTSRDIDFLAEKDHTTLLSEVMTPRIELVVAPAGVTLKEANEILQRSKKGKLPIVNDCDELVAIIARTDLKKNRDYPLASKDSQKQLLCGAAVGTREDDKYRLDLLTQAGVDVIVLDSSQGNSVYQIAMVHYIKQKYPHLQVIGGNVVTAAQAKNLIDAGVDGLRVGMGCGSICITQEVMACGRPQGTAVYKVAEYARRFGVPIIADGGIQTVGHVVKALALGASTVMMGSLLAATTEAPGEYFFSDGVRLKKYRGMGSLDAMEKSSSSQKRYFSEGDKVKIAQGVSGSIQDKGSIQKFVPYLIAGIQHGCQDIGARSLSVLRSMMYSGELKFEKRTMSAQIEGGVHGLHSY
- ASSAY PROTOCOL: IMPDH1 activity assay, GTP inhibition
pIC50: −log10 of the molar value.

COMPOUND | pIC50
Nc1nc2c(ncn2[C@@H]2O[C@H](COP(=O)(O)OP(=O)(O)OP(=O)(O)O)[C@@H](O)[C@H]2O)c(=O)[nH]1 [GTP, guanosine triphosphate] | 3.27
